- Test system: SH-SY5Y cells
- Assay Overview: Aβ42 induced SH-SY5Y cells toxicity and olive biophenols treatment (MTT viability)
- Test Parameters: 1000 µM standard, 24 h pre-incubation, then 25 µM Aβ42 for 24 h
Please respond with reported Aβ-SH-SY5Y Toxicity % Viability for every item in the list.
Answers are plain numbers, in %.

Consider the worked cases shown below.
Molecule: O=c1cc(-c2ccc(O)c(O)c2)oc2cc(O)cc(O)c12 [Luteolin (LU), Luteolin]
Observed Result: 65

Molecule: O=C(O)/C=C/c1ccc(O)c(O)c1 [Caffeic acid (CA), Caffeic acid]
Observed Result: 62

Molecule: C[C@@H]1O[C@@H](OC[C@H]2O[C@@H](Oc3c(-c4ccc(O)c(O)c4)oc4cc(O)cc(O)c4c3=O)[C@H](O)[C@@H](O)[C@@H]2O)[C@H](O)[C@H](O)[C@H]1O [Rutin (RU), Rutin]
Observed Result: 59

Molecule: C/C=C1/[C@H](O[C@@H]2O[C@H](CO)[C@@H](O)[C@H](O)[C@H]2O)OC=C(C(=O)OC)[C@H]1CC(=O)OCCc1ccc(O)c(O)c1 [Oleuropein (OL), Oleuropein]
Observed Result: 68

Now for a further molecule.
For OCCc1ccc(O)c(O)c1 [Hydroxytyrosol (HT), Hydroxytyrosol] , what is its reported Aβ-SH-SY5Y Toxicity % Viability? 60

###

- Assayed Target: Aβ42 fibrils (Homo sapiens)
- Sequence (P05067 672-713 limits assumed): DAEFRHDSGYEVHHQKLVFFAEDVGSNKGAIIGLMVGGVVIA
- Assay Overview: Congo red binding assay, Aβ42 fibril inhibition
- Format: biochemical
Quantity Measured: IC50 (µM)
Answers are plain numbers, in µM.

Return IC50 measured with Aβ42 fibrils (Homo sapiens) given this molecule: O=c1c(O)c(-c2ccc(O)c(O)c2)oc2cc(O)cc(O)c12 [Quercetin (QU), Quercetin] 73.8
